Source: BindingDB's records for doi:10.1016/j.bmc.2017.07.045

Experiment: Inhibition of P2Y12 in human platelet rich plasma assessed as reduction in ADP-induced platelet aggregation pre-incubated before ADP addition and measured after 10 mins by Bruker spectrophotometry
outcome.measure: IC50
Please make sure the unit comes right after the number.

Some solved entries appear below for comparison.
Dear colleague, I am looking for the recorded IC50 of the following compound: CCCCCCCn1nc2cccc([N+](=O)[O-])c2n1 930 µM

Please report the recorded IC50 for Cn1nc2cccc([N+](=O)[O-])c2n1 . 1960 µM

Report IC50 for CCCCn1nnc2c([N+](=O)[O-])cccc21 please. 1050 µM

More entries:
Look up IC50 for this compound: O=C(c1ccccc1)n1nnc2c([N+](=O)[O-])cccc21 650 µM

Quick one: IC50 of CCCCCn1nnc2c([N+](=O)[O-])cccc21 ? 1070 µM

State the recorded IC50 for this entry: O=[N+]([O-])c1cccc2c1nnn2CCCCl 910 µM

For CCCn1nnc2c([N+](=O)[O-])cccc21 , what is its reported IC50? 1300 µM

For the compound shown here, Cc1ccc(S(=O)(=O)n2nnc3c([N+](=O)[O-])cccc32)cc1 , give the reported IC50. 860 µM
